# protocol_text: Probe fluorescence ratio response to stearic acid relative to ADIFAB2
# Assay type: binding
# assay_setup: response relative to ADIFAB2
quantity: DR/DR SA

{"columns": ["molecule", "quantity", "reported_result"],
 "data": [
  ["18V 31F 55L 72A (protein, listed as Rattus norvegicus, PEPTIDE (1)...(131) wild-type rat intestinal fatty acid binding protein) AFDGTWKVDRNENYEKFVEKMGINVVKRKLFAHDNLKLTITQEGNKFTVKESSNLRNIDVVFELGVDFAYSAADGTELTGTWTMEGNKLVGKFKRVDNGKELIAVREISGNELIQTYTYEGVEAKRIFKKE", "DR/DR SA", 0.358],
  ["38V 62V 117A 72A (protein, listed as Rattus norvegicus, PEPTIDE (1)...(131) wild-type rat intestinal fatty acid binding protein) AFDGTWKVDRNENYEKFMEKMGINVVKRKLGAHDNLKVTITQEGNKFTVKESSNFRNIDVVVELGVDFAYSAADGTELTGTWTMEGNKLVGKFKRVDNGKELIAVREISGNELIQTATYEGVEAKRIFKKE", "DR/DR SA", 0.495],
  ["14M 18L 31W 73I 117G 72A (protein, listed as Rattus norvegicus, PEPTIDE (1)...(131) wild-type rat intestinal fatty acid binding protein) AFDGTWKVDRNENMEKFLEKMGINVVKRKLWAHDNLKLTITQEGNKFTVKESSNFRNIDVVFELGVDFAYSAIDGTELTGTWTMEGNKLVGKFKRVDNGKELIAVREISGNELIQTGTYEGVEAKRIFKKE", "DR/DR SA", 0.487]
]}
